Test system: CHO
procedure text: Concentration ratio of human NOP receptor expressed in CHO cells to human mu opioid receptor expressed in CHO cells
Type: cell-based
Where a SMILES comes first, the peptide text is derived from it. [ ]: non-standard residue; d: D form. Phe(4-NH2) = Nc1ccc(C[C@H](N)C(=O)O)cc1; Phe(4-F) = N[C@@H](Cc1ccc(F)cc1)C(=O)O; 1Nal = N[C@@H](Cc1cccc2ccccc12)C(=O)O; Dmt = Cc1cc(O)cc(C)c1C[C@H](N)C(=O)O

[
  {
    "compound": "Cc1cc(O)cc(C)c1C[C@H](N)C(=O)NCC(=O)NCC(=O)N[C@@H](Cc1ccccc1)C(=O)N[C@@H](Cc1ccccc1)C(=O)NCC(=O)N[C@@H](C)C(=O)N[C@@H](CCCNC(=N)N)C(=O)N[C@@H](CCCCN)C(=O)N[C@@H](CO)C(=O)N[C@@H](C)C(=O)N[C@@H](CCCNC(=N)N)C(=O)N[C@@H](CCCCN)C(N)=O (H-[Dmt]GGFFGARKSARK-NH2)",
    "Ratio": 8.71
  },
  {
    "compound": "Cc1cc(O)cc(C)c1C[C@H](N)C(=O)NCC(=O)NCC(=O)N[C@@H](Cc1ccccc1)C(=O)N[C@@H](Cc1ccc(O)cc1)C(=O)NCC(=O)N[C@@H](C)C(=O)N[C@@H](CCCNC(=N)N)C(=O)N[C@@H](CCCCN)C(=O)N[C@@H](CO)C(=O)N[C@@H](C)C(=O)N[C@@H](CCCNC(=N)N)C(=O)N[C@@H](CCCCN)C(N)=O (H-[Dmt]GGFYGARKSARK-NH2)",
    "Ratio": 7.94
  },
  {
    "compound": "COc1ccc(C[C@H](NC(=O)[C@H](Cc2ccccc2)NC(=O)CNC(=O)CNC(=O)[C@@H](N)Cc2ccc(O)cc2)C(=O)NCC(=O)N[C@@H](C)C(=O)N[C@@H](CCCNC(=N)N)C(=O)N[C@@H](CCCCN)C(=O)N[C@@H](CO)C(=O)N[C@@H](C)C(=O)N[C@@H](CCCNC(=N)N)C(=O)N[C@@H](CCCCN)C(N)=O)cc1 (H-YGGFY(Me)GARKSARK-NH2)",
    "Ratio": 0.02
  },
  {
    "compound": "C[C@H](NC(=O)CNC(=O)[C@H](Cc1ccc(F)cc1)NC(=O)[C@H](Cc1ccccc1)NC(=O)CNC(=O)CNC(=O)[C@@H](N)Cc1ccc(O)cc1)C(=O)N[C@@H](CCCNC(=N)N)C(=O)N[C@@H](CCCCN)C(=O)N[C@@H](CO)C(=O)N[C@@H](C)C(=O)N[C@@H](CCCNC(=N)N)C(=O)N[C@@H](CCCCN)C(N)=O (H-YGGF[Phe(4-F)]GARKSARK-NH2)",
    "Ratio": 0.06
  },
  {
    "compound": "Cc1cc(O)cc(C)c1C[C@H](N)C(=O)NCC(=O)NCC(=O)N[C@@H](Cc1ccccc1)C(=O)N[C@@H](Cc1cccc2ccccc12)C(=O)NCC(=O)N[C@@H](C)C(=O)N[C@@H](CCCNC(=N)N)C(=O)N[C@@H](CCCCN)C(=O)N[C@@H](CO)C(=O)N[C@@H](C)C(=O)N[C@@H](CCCNC(=N)N)C(=O)N[C@@H](CCCCN)C(N)=O (H-[Dmt]GGF[1Nal]GARKSARK-NH2)",
    "Ratio": 3.8
  },
  {
    "compound": "C[C@H](NC(=O)CNC(=O)[C@H](Cc1ccc(N)cc1)NC(=O)[C@H](Cc1ccccc1)NC(=O)CNC(=O)CNC(=O)[C@@H](N)Cc1ccc(O)cc1)C(=O)N[C@@H](CCCNC(=N)N)C(=O)N[C@@H](CCCCN)C(=O)N[C@@H](CO)C(=O)N[C@@H](C)C(=O)N[C@@H](CCCNC(=N)N)C(=O)N[C@@H](CCCCN)C(N)=O (H-YGGF[Phe(4-NH2)]GARKSARK-NH2)",
    "Ratio": 0.08
  }
]
